Item-by-item account of IC50
System: Human immunodeficiency virus 1
Assay: Antiviral activity against Human immunodeficiency virus 1 HXB2 expressing protease M8 mutant infected in human MT4 cells after 5 days by MTT assay
Assay type: functional, organism-based
Settings: Human immunodeficiency virus 1, HXB2, MT4, 120 h
Field format: number, assumed nM, no unit text.

Return IC50 (reported value) for this compound: CC(C)CN(C[C@@H](O)[C@H](Cc1ccccc1)NC(=O)O[C@H]1CO[C@H]2OCC[C@H]21)S(=O)(=O)c1ccc2c(c1)C(=CNCC(C)(C)C)C(=O)N2 (mixture of isomers)
13

Return IC50 (reported value) for this compound: CCNC=C1C(=O)Nc2ccc(S(=O)(=O)N(CC(C)C)C[C@@H](O)[C@H](Cc3ccccc3)NC(=O)O[C@H]3CO[C@H]4OCC[C@H]43)cc21 (mixture of isomers)
35

Return IC50 (reported value) for this compound: CC(C)CN(C[C@@H](O)[C@H](Cc1ccccc1)NC(=O)O[C@H]1CO[C@H]2OCC[C@H]21)S(=O)(=O)c1ccc2c(c1)C(=CNC1CC1)C(=O)N2 (mixture of isomers)
32

Return IC50 (reported value) for this compound: CCN(C=C1C(=O)Nc2ccc(S(=O)(=O)N(CC(C)C)C[C@@H](O)[C@H](Cc3ccccc3)NC(=O)O[C@H]3CO[C@H]4OCC[C@H]43)cc21)CC (mixture of isomers)
40

Return IC50 (reported value) for this compound: CC(C)CN(C[C@@H](O)[C@H](Cc1ccccc1)NC(=O)O[C@H]1CO[C@H]2OCC[C@H]21)S(=O)(=O)c1ccc2c(c1)C(=CNCC1CCCCC1)C(=O)N2 (mixture of isomers)
27

Return IC50 (reported value) for this compound: CC(C)CN(C[C@@H](O)[C@H](Cc1ccccc1)NC(=O)O[C@H]1CO[C@H]2OCC[C@H]21)S(=O)(=O)c1ccc2c(c1)CCN2
107

***
Return IC50 (reported value) for this compound: CC(C)CN(C[C@@H](O)[C@H](Cc1ccccc1)NC(=O)O[C@H]1CO[C@H]2OCC[C@H]21)S(=O)(=O)c1ccc2c(c1)C(=CNCc1ccccc1)C(=O)N2 (mixture of isomers)
35

###

Item-by-item account of pIC50
Tested on: Human immunodeficiency virus 1
Assay: Antiviral activity against Human immunodeficiency virus 1 HXB2 expressing protease M8 mutant infected in human MT4 cells after 5 days by MTT assay
Assay type: functional, organism-based
Conditions: Human immunodeficiency virus 1, HXB2, MT4, 120 h
Answer as the number alone; pIC50 is minus log10 of concentration in mol/L.

Some solved cases for reference:
Return pIC50 (reported value) for this compound: CC(C)CN(C[C@@H](O)[C@H](Cc1ccccc1)NC(=O)O[C@H]1CO[C@H]2OCC[C@H]21)S(=O)(=O)c1ccc2c(c1)C(=CNCCc1ccccc1)C(=O)N2 (mixture of isomers)
7.21

Return pIC50 (reported value) for this compound: CC(C)CN(C[C@@H](O)[C@H](Cc1ccccc1)NC(=O)O[C@H]1CO[C@H]2OCC[C@H]21)S(=O)(=O)c1ccc2c(c1)C(=CNCc1ccc3ccccc3n1)C(=O)N2 (mixture of isomers)
7.47

***
Return pIC50 (reported value) for this compound: CNC(C)=C1C(=O)Nc2ccc(S(=O)(=O)N(CC(C)C)C[C@@H](O)[C@H](Cc3ccccc3)NC(=O)O[C@H]3CO[C@H]4OCC[C@H]43)cc21 (mixture of isomers)
7.54

Return pIC50 (reported value) for this compound: CC(C)CN(C[C@@H](O)[C@H](Cc1ccccc1)NC(=O)O[C@H]1CO[C@H]2OCC[C@H]21)S(=O)(=O)c1ccc2c(c1)C(=CNc1ccccc1)C(=O)N2
6.96

Return pIC50 (reported value) for this compound: CC(C)CN(C[C@@H](O)[C@H](Cc1ccccc1)NC(=O)O[C@H]1CO[C@H]2OCC[C@H]21)S(=O)(=O)c1ccc2c(c1)C(=CN(C)C)C(=O)N2 (mixture of isomers)
7.05
